B1: DCAF4 (parent)
chain: DSHILLCLMGLAETPGCATLLPAS

# Variants of: B1
# protocol: protein stability index of a GFP-peptide fusion (GPS, HEK-293T) (PSI 1-6); higher = more stable;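 also: lentivirally expressed fusions sorted by FACS into six bins by GFP to DsRed ratio, PSI derived from sequencing read proportions per bin multiplied by bin number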
# condition: c terminus: a fixed tail appended
The following variants are listed with their measured protein stability index values.
Answer field: number only, no words.

sequence.input	protein stability index
DSHILLCLMGLAETPGCQTLLPAS [A18Q]	2.02
DSHILLCLMGLAETPGPATLLPAS [C17P]	3
DSHILLCLMGLAETPTCATLLPAS [G16T]	1.99

Query string: Give the reported value of protein stability index for this record: DSHILLCLMGLAEEPGCATLLPAS [T14E]
Result string: 2.95

Query string: Give the reported value of protein stability index for this record: DKHILLCLMGLAETPGCATLLPAS [S2K]
Result string: 2.03
